Property: cytotoxicity at 70.5 h; scope: individual molecules
test: Human HepG2 cell viability assay in 384 well format; type: toxicity, cell-based; parameters: dose 125 nL, time 70.5 hour; concentration not given beside the values; conditions: HepG2 cells, read-out: Inhibition
Report the figure in % without appending any unit label.

Sample records with cytotoxicity at 70.5 h:
[
  {
    "molecule": "O=c1[nH][nH]cc1-c1ccnc(NCCN2CCCCC2)n1",
    "units": "%",
    "cytotoxicity at 70.5 h": 30.8
  },
  {
    "molecule": "N#Cc1ccccc1OCCN1CCCC1Cn1cccn1 (centres undefined)",
    "units": "%",
    "cytotoxicity at 70.5 h": -4.78
  },
  {
    "molecule": "CN(C)C(=O)CN1CC[C@H]2[C@H]1CCN2c1ncccn1",
    "units": "%",
    "cytotoxicity at 70.5 h": -20.8
  },
  {
    "molecule": "Cn1cnc2c1CCN(Cc1cccc(C(N)=O)c1)C2",
    "units": "%",
    "cytotoxicity at 70.5 h": -7.77
  },
  {
    "molecule": "CC(C)n1cnnc1C1CCCN(S(=O)(=O)CCCF)C1 (centres undefined)",
    "units": "%",
    "cytotoxicity at 70.5 h": -93.6
  },
  {
    "molecule": "COc1ccc(Br)c(C(=O)N2CCCC(c3nc(C)no3)C2)c1 (centres undefined)",
    "units": "%",
    "cytotoxicity at 70.5 h": -9.43
  },
  {
    "molecule": "Cc1ccc(N2CC3(COCCN(Cc4nccs4)C3)OCC2=O)s1 (centres undefined)",
    "units": "%",
    "cytotoxicity at 70.5 h": -10.7
  },
  {
    "molecule": "COc1cc(CN2CCCC2)ccc1OC12CCCN(CC1)C2 (centres undefined)",
    "units": "%",
    "cytotoxicity at 70.5 h": -18.9
  }
]

What does the data say about its cytotoxicity at 70.5 h? Entry: `COc1ccc(CN2C[C@@H]3CC[C@H](C2)N(S(=O)(=O)C2CC2)C3)cc1` -5.41

What does the data say about its cytotoxicity at 70.5 h? Entry: CN(C)C(=O)COC1COC2(CCN(CC3CCOCC3)CC2)C1 (centres undefined) -4.78

What does the data say about its cytotoxicity at 70.5 h? Entry: `CCOc1ccc(NC(=O)Nc2cc(N3CCCCC3)ncn2)cc1` -1.28

* * *

assay: Human HepG2 cell viability assay in 384 well format; assay type: toxicity, cell-based; design: dose 125 nL, time 70.5 hour; concentration not given beside the values; settings: HepG2 cells, read-out: Inhibition
property_measured: cytotoxicity at 70.5 h (%)
Report the figure in % without appending any unit label.

[
  {
    "molecule": "CCOC1CCCN(C(=O)c2cnc3c(cnn3C3CCCC3)c2)C1 (stereo unspecified)",
    "units": "%",
    "readout_value": -18
  }
]

What does the data say about its cytotoxicity at 70.5 h? Entry: `COCCOc1ccnc(-c2noc([C@@H]3CCCN3C(C)C)n2)c1` -5.66

What does the data say about its cytotoxicity at 70.5 h? Entry: COCC(C)NC(=O)c1cncc(Br)c1 (stereo unspecified) -0.743

What does the data say about its cytotoxicity at 70.5 h? Entry: `F[C@@H]1CN(CC2CC2)C[C@@H]1OCc1nc2ccccc2[nH]1` 14.4

* * *

Property: cytotoxicity at 70.5 h; scope: individual compounds
experiment: Human HepG2 cell viability assay in 384 well format; format: toxicity, cell-based; parameters: dose 125 nL, time 70.5 hour; concentration not given beside the values; conditions: HepG2 cells, read-out: Inhibition
Answers without a unit are incomplete; give the number and then its unit.

[
  {
    "compound": "Cc1cnn(C2CCCN(C(=O)c3cc(-c4cccs4)n[nH]3)C2)c1 (stereo unspecified)",
    "cytotoxicity at 70.5 h": "-4.05%"
  },
  {
    "compound": "CC(NC(=O)C1=NN(C)C(=O)CC1)c1ccc(F)cc1F (stereo unspecified)",
    "cytotoxicity at 70.5 h": "20%"
  },
  {
    "compound": "CCc1nc2n(n1)CC(NCc1cnc(-c3ccccc3)nc1)CC2 (stereo unspecified)",
    "cytotoxicity at 70.5 h": "29.3%"
  },
  {
    "compound": "CC1(c2ccc(Br)cc2)CC(=O)N(CC(N)=O)C1=O (stereo unspecified)",
    "cytotoxicity at 70.5 h": "32.3%"
  },
  {
    "compound": "CCC(=O)N1CCN(Cc2cnc(C)nc2)[C@H]2CS(=O)(=O)C[C@H]21",
    "cytotoxicity at 70.5 h": "12.9%"
  }
]

Then this compound:
What does the data say about its cytotoxicity at 70.5 h? Entry: `CC(=O)c1cccc(S(=O)(=O)N2CCC(c3noc(C)n3)CC2)c1` -9.37%

* * *

Property: cytotoxicity at 70.5 h; scope: individual compounds
experiment: Human HepG2 cell viability assay in 384 well format; format: toxicity, cell-based; design: dose 125 nL, time 70.5 hour; concentration not given beside the values; conditions: HepG2 cells, read-out: Inhibition
Report the figure in % without appending any unit label.

Sample records with cytotoxicity at 70.5 h:
[
  {
    "compound": "CC(=O)NCCc1cc(N2CCN(C(C)=O)CC2)nc(C2CC2)n1",
    "units": "%",
    "cytotoxicity at 70.5 h": -5.29
  },
  {
    "compound": "Cc1cccc(-c2ncc(CNC(C)CO)cn2)c1 (stereo not drawn)",
    "units": "%",
    "cytotoxicity at 70.5 h": 27.8
  },
  {
    "compound": "c1ccc(-c2ncc3c(n2)C2(CCN(CC4CC4)C2)COC3)cc1 (stereo not drawn)",
    "units": "%",
    "cytotoxicity at 70.5 h": 15.2
  },
  {
    "compound": "CCN(CC)c1ccc(NS(=O)(=O)c2cccnc2)cn1",
    "units": "%",
    "cytotoxicity at 70.5 h": -1.98
  },
  {
    "compound": "Cn1ccc(C(=O)Nc2nnc(-c3ccccn3)[nH]2)cc1=O",
    "units": "%",
    "cytotoxicity at 70.5 h": -22.2
  },
  {
    "compound": "Cc1n[nH]c2c1C(c1ccncc1)SCC(=O)N2 (stereo not drawn)",
    "units": "%",
    "cytotoxicity at 70.5 h": 19.3
  }
]

What does the data say about its cytotoxicity at 70.5 h? Entry: COc1ccccc1CC1CCCN(CC(=O)NC2CC2)C1 (stereo not drawn) -8.21

What does the data say about its cytotoxicity at 70.5 h? Entry: `Cn1ccc(C(=O)NCc2cccc(NC(=O)C3CCC3)c2)cc1=O` -13.3

What does the data say about its cytotoxicity at 70.5 h? Entry: CCOCC1CN(c2ncccn2)Cc2cnn(CC3CCOCC3)c21 (stereo not drawn) 9.85

What does the data say about its cytotoxicity at 70.5 h? Entry: `CCN(CC)C(=O)CSc1nc2cc(C)nc-2c(O)n1CC` 6.98

What does the data say about its cytotoxicity at 70.5 h? Entry: `O=C1CN(Cc2cc(O)c3cccc(F)c3n2)CCN1C1CCCC1` 5.5

What does the data say about its cytotoxicity at 70.5 h? Entry: c1cnnc(NCC2CN(CCn3cccn3)CCO2)c1 (stereo not drawn) -2.81

* * *

assay: Human HepG2 cell viability assay in 384 well format; assay type: toxicity, cell-based; design: dose 125 nL, time 70.5 hour; concentration not given beside the values; conditions: HepG2 cells, read-out: Inhibition
Property: cytotoxicity at 70.5 h; scope: individual compounds
Report the figure in % without appending any unit label.

Sample records with cytotoxicity at 70.5 h:
[
  {
    "compound": "COC1CCN(C(=O)c2nn(-c3ccc(C(C)C)cc3)cc2O)CC1",
    "units": "%",
    "cytotoxicity at 70.5 h": 10.9
  },
  {
    "compound": "COc1ccc(Cc2ncc3c(n2)CN(C(=O)CCO)C3)cc1",
    "units": "%",
    "cytotoxicity at 70.5 h": 25.1
  },
  {
    "compound": "CCCc1nnnn1CC(=O)NCc1cccc(C)c1",
    "units": "%",
    "cytotoxicity at 70.5 h": -3.35
  },
  {
    "compound": "CC(C)c1nccc(CN2CCCC(O)(CN3CCCC3)C2)n1 (configuration not stated)",
    "units": "%",
    "cytotoxicity at 70.5 h": -0.735
  },
  {
    "compound": "O=C(CCc1nc(C2CC2)no1)c1ccc(F)c(F)c1",
    "units": "%",
    "cytotoxicity at 70.5 h": -17.2
  }
]

What does the data say about its cytotoxicity at 70.5 h? Entry: `COc1ccc(C(=O)N2C[C@@H](C(=O)O)[C@H](c3ccccc3)C2)c(C)c1` 11.5

* * *

Property: cytotoxicity at 70.5 h; scope: individual compounds
assay: Human HepG2 cell viability assay in 384 well format; assay type: toxicity, cell-based; design: dose 125 nL, time 70.5 hour; concentration not given beside the values; conditions: HepG2 cells, read-out: Inhibition
Report the figure in % without appending any unit label.

[
  {
    "compound": "CN1CCC(c2cccc(CCC(=O)NCC(N)=O)n2)CC1",
    "readout_value": -5.22
  },
  {
    "compound": "CCc1ccc(-c2noc(Cn3nc(C(N)=O)ccc3=O)n2)cc1",
    "readout_value": -6.4
  },
  {
    "compound": "Cn1cc(C(=O)N2CC[C@@H]3[C@@H]2CCN3Cc2ccccc2)cn1",
    "readout_value": -15
  },
  {
    "compound": "COc1c(C)cnc(CN(C)C2CCCCC2)c1C",
    "readout_value": 8.25
  },
  {
    "compound": "CCc1nc(N2CCC3(CCC(=O)N(CCCO)C3)CC2)no1",
    "readout_value": 9.45
  },
  {
    "compound": "O=C(c1cccnc1)N1CCCC1c1nc(O)cc(-c2ccccn2)n1 (stereo unspecified)",
    "readout_value": -6.66
  }
]

What does the data say about its cytotoxicity at 70.5 h? Entry: CCc1noc(C2CCCCN2C(=O)c2ccccc2)n1 (stereo unspecified) -1.29

What does the data say about its cytotoxicity at 70.5 h? Entry: `Cc1cccc(NC(=O)N2CCn3cnc(COCC4CC4)c3C2)c1` -13.2

What does the data say about its cytotoxicity at 70.5 h? Entry: `Cc1[nH]ccc1C(=O)N1CCC2(CC1)c1nc[nH]c1CCN2S(C)(=O)=O` -4.51

What does the data say about its cytotoxicity at 70.5 h? Entry: `O=C(Cc1ccc(F)cc1)NCCNCc1cccc(O)c1` 0.177

What does the data say about its cytotoxicity at 70.5 h? Entry: `c1ccc2nc(N3CCCC3)c(NCc3nnc4n3CCC4)nc2c1` -9.07

The values you see were collected from ChEMBL document CHEMBL3507680.
